All figures here come from patent US10385065B2.

system: Staphylococcus aureus ATCC 29213; test: MIC, broth microdilution, S. aureus ATCC 29213; type: cell-based; details: ATCC 29213 / MSSA, Table 2, read-out: MIC S. aureus (MSSA) ATCC 29213 CLSI control strain
MIC values by entry

Here is how some compounds turned out for MIC.
                                 mol_smiles                       test_target  recorded_endpoint  readout_value
0  Cc1nc2c(=O)n(C3CC3)c3c(C)c(-c4ccc(C(C)(C)N)cc4)ccc3c2o1  Staphylococcus aureus ATCC 29213                MIC   1 to 10 mg/L
1  CCn1c(=O)c2ncoc2c2cc(F)c(-c3cc(F)c(N)cc3F)c(C)c21  Staphylococcus aureus ATCC 29213                MIC   1 to 10 mg/L
2  Cc1c(-c2cnc(N)nc2)ccc2c3ocnc3c(=O)n(C3CC3)c12  Staphylococcus aureus ATCC 29213                MIC       < 1 mg/L

Alright, here's another compound for you.
Data request: Write down the reported MIC of `Cc1c(-c2cnc(N)cn2)ccc2c3ocnc3c(=O)n(C3CC3)c12` , test system: Staphylococcus aureus ATCC 29213.
Data returned: 10 to 100 mg/L

* * *

test system: S. aureus NRS482 MRSA FQ resistant; test: MIC, S. aureus NRS482; type: cell-based; conditions: Staphylococcus aureus; Table 2
RECORDED_ENDPOINT: MIC

These solved cases illustrate the format of a correct answer.
MOLECULE	MIC
Cc1nc2c(=O)n(C3CC3)c3c(C)c(-c4ccc(N)nc4)ccc3c2o1	1 to 10 µg/mL
Cc1nc2c(=O)n(C3CC3)c3c(C)c(-c4cc(F)c(N)cc4F)ccc3c2o1	< 1 µg/mL
CCOC(=O)CNC(=O)c1ccc(-c2ccc3c4ocnc4c(=O)n(C4CC4)c3c2C)cc1	1 to 10 µg/mL

Data request: Form field: reported MIC of `Cc1c(-c2cnc(N)nc2)ccc2c3ocnc3c(=O)n(C3CC3)c12`
Data returned: 1 to 10 µg/mL

Data request: Look at this molecule and give its reported MIC. C[C@H]1COc2c(N3CCN(C)CC3)c(F)cc3c(=O)c(C(=O)O)cn1c23 [Levofloxacin, reference compound]
Data returned: 1 to 10 µg/mL

Data request: Would you mind telling me what MIC value was observed for `Cc1nc2c(=O)n(C3CC3)c3c(C)c(-c4ccc5cn[nH]c5c4)ccc3c2o1` ?
Data returned: < 1 µg/mL

Data request: Which measured MIC value corresponds to `Cc1nc2c(=O)n3c4c(c(N5CC[C@H](CN)C5)c(F)cc4c2o1)OC[C@@H]3C` ?
Data returned: 1 to 10 µg/mL

Data request: So what's the measured MIC for this one? CN[C@H](CC(C)C)C(=O)N[C@H]1C(=O)N[C@@H](CC(N)=O)C(=O)N[C@H]2C(=O)N[C@H]3C(=O)N[C@H](C(=O)N[C@H](C(=O)O)c4cc(O)cc(O)c4-c4cc3ccc4O)[C@H](O)c3ccc(c(Cl)c3)Oc3cc2cc(c3O[C@@H]2O[C@H](CO)[C@@H](O)[C@H](O)[C@H]2O[C@H]2C[C@](C)(N)[C@H](O)[C@H](C)O2)Oc2ccc(cc2Cl)[C@H]1O [Vancomycin, reference compound]
Data returned: 1 to 10 µg/mL

Data request: Consider the molecule shown here: `Cc1c(-c2ccc(N)c(F)c2)ccc2c3ocnc3c(=O)n(C3CC3)c12` What is its recorded MIC?
Data returned: 1 to 10 µg/mL

* * *

system: Staphylococcus aureus ATCC 29213; experiment: MIC, broth microdilution, S. aureus ATCC 29213; type: cell-based; details: ATCC29213, Table 1, wild type strain, read-out: MIC S. aureus ATCC 29213
RECORDED_ENDPOINT: MIC

Data request: Please report the recorded MIC for Cc1nc2c(=O)n(C3CC3)c3cc(N4CCC(CN)C4)c(F)cc3c2o1 (centres unmarked) [Compound 57] .
Data returned: < 1 µg/mL

Data request: Would you kindly share the measured MIC for Cc1nc2c(=O)n(C3CC3)c3c(C)c(-c4ccc(C(C)(C)N)cc4)ccc3c2o1 [Compound 28] ?
Data returned: 10 to 100 µg/mL

Data request: # get_value(readout='MIC', item= Cc1nc2c(=O)n(C3CC3)c3c(C)c(-c4ccc(S(N)(=O)=O)cc4)ccc3c2o1 [Compound 17] )
Data returned: 1 to 10 µg/mL

Data request: Item under review: Cc1c(-c2cnc(N)nc2)ccc2c3oc(CN)nc3c(=O)n(C3CC3)c12 [Compound 103] . Reported MIC?
Data returned: 1 to 10 µg/mL

Data request: // query MIC value for entry Cc1c(-c2cnc3[nH]nc(N)c3c2)ccc2c3ocnc3c(=O)n(C3CC3)c12 [Compound 21]
Data returned: < 1 µg/mL

Data request: // returns reported MIC for input C[C@H]1COc2c(-c3cc(F)c(N)cc3F)ccc3c4ocnc4c(=O)n1c23 [Compound 93]
Data returned: 1 to 10 µg/mL

Data request: Any idea what MIC was measured for Cc1nc2c(=O)n(C3CC3)c3cc(-c4ccc5[nH]ncc5c4)c(F)cc3c2o1 [Compound 73] ?
Data returned: < 1 µg/mL

Data request: Name the reported MIC value associated with the compound Cc1c(-c2cnc(N)cn2)ccc2c3ocnc3c(=O)n(C3CC3)c12 [Compound 6]
Data returned: 10 to 100 µg/mL

* * *

test system: S. aureus NRS482 MRSA FQ resistant; test: MIC, S. aureus NRS482; type: cell-based; settings: Staphylococcus aureus; Table 2
Each item that follows carries a reported MIC.

Reference set, count: 4
In [3]: df
Out[3]:
                                   compound  recorded_endpoint    readout_value
0  CC(=O)OCc1nc2c(=O)n(C3CC3)c3c(C)c(-c4cc(F)c(N)cc4F)ccc3c2o1                MIC        < 1 µg/mL
1  Cc1c(-c2cc(F)c(N)cc2F)ccc2c3oc(CO)nc3c(=O)n(C3CC3)c12                MIC        < 1 µg/mL
2  Cc1nc2c(=O)n(C3CC3)c3c(C)c(-c4cc(F)c(C(N)=O)cc4F)ccc3c2o1                MIC    1 to 10 µg/mL
3  Cc1nc2c(=O)n(C3CC3)c3cc(N4CCC(N)CC4)c(F)cc3c2o1                MIC  10 to 100 µg/mL

Data request: # lookup: MIC of `CCn1c(=O)c2ncoc2c2ccc(-c3cc(F)c(N)cc3F)c(C)c21`
Data returned: 1 to 10 µg/mL

Data request: What does the record list as MIC for `C[C@H]1COc2c(-c3cc(F)c(N)cc3F)ccc3c4ocnc4c(=O)n1c23` ?
Data returned: 1 to 10 µg/mL

Data request: Name the reported MIC value associated with the compound Cc1nc2c(=O)n(C3CC3)c3cc(N4CCC(CN)C4)c(F)cc3c2o1 (centres unmarked)
Data returned: 1 to 10 µg/mL

Data request: Entry under review: `Cc1c(-c2ccc3[nH]ncc3c2)ccc2c3scnc3c(=O)n(C3CC3)c12` . Reported MIC?
Data returned: < 1 µg/mL

* * *

What follows is a record of MIC for Haemophilus influenzae ATCC 49247.

Example cases with answers are listed next.
In [3]: df
Out[3]:
                                   compound  recorded_endpoint  readout_value
0  Cc1nc2c(=O)n(C3CC3)c3c(C)c(-c4ccc(C(N)=O)cc4)ccc3c2o1                MIC  1 to 10 µg/mL
1  CC(=O)OCc1nc2c(=O)n(C3CC3)c3c(C)c(-c4cc(F)c(N)cc4F)ccc3c2o1                MIC  1 to 10 µg/mL
2  Cc1nc2c(=O)n(C3CC3)c3cc(N4CCC(N)C4)c(F)cc3c2o1 (stereo not shown)                MIC  1 to 10 µg/mL

Moving on to another compound below.
Data request: For the record C[C@H]1COc2c(N3CCN(C)CC3)c(F)cc3c(=O)c(C(=O)O)cn1c23 [Levofloxacin, reference compound] , what value of MIC is listed for Haemophilus influenzae ATCC 49247?
Data returned: < 1 µg/mL

* * *

system: Staphylococcus aureus ATCC 29213; assay: MIC, broth microdilution, S. aureus ATCC 29213; format: cell-based; settings: ATCC 29213 / MSSA, Table 2, read-out: MIC S. aureus (MSSA) ATCC 29213 CLSI control strain
Below is a list of entries, each paired with its recorded MIC value.

Some molecules with recorded MIC:
>>> df
                                   molecule  recorded_endpoint  readout_value
0  Nc1ccc(-c2cc3c(cc2F)c2ocnc2c(=O)n3C2CC2)cc1F                MIC  1 to 10 µg/mL
1  NCC1CCN(c2nc3c(cc2F)c2ocnc2c(=O)n3C2CC2)C1 (centres unmarked)                MIC  1 to 10 µg/mL
2  Cc1c(-c2ccc3nonc3c2)ccc2c3ocnc3c(=O)n(C3CC3)c12                MIC      < 1 µg/mL
3  Cc1onc(-c2ccccc2)c1C(=O)N[C@@H]1C(=O)N2[C@@H]1SC(C)(C)[C@@H]2C(=O)O [Oxacillin, reference compound]                MIC      < 1 µg/mL

Data request: # input molecule: `Cc1nc2c(=O)n(C3CC3)c3cc(-c4cc(F)c(C(N)=O)cc4F)c(F)cc3c2o1` ; wanted: its MIC
Data returned: > 100 µg/mL

Data request: Item under review: `Cc1nc2c(=O)n(C3CC3)c3c(C)c(-c4ccc(C(N)=O)cc4)ccc3c2o1` . Reported MIC?
Data returned: < 1 µg/mL

Data request: // MIC lookup, key: `Cc1c(-c2ccc(N)c(F)c2)ccc2c3ocnc3c(=O)n(C3CC3)c12`
Data returned: < 1 µg/mL

Data request: Need MIC of `C[C@H]1COc2c(-c3ccc(N)nc3)ccc3c4ocnc4c(=O)n1c23` , thanks.
Data returned: 1 to 10 µg/mL
